Data credit: paper PMC12416549

Biological target: T1, TNFR1 (Homo sapiens, UniProt P19438)
T1 chain: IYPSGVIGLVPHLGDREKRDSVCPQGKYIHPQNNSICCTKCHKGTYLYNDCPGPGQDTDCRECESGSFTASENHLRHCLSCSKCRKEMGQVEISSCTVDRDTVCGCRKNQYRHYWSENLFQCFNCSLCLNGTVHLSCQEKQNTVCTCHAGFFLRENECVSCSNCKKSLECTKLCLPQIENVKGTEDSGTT
Experiment: yeast display SC50
We begin with a simple list: items and their reported apparent Kd (screen).

{"Binder": "A17R (designed binder) MTLQELLREEALRRAEREAFRYALELLAEKFPEQKEYLLDLAEEIESQIRSLSGVDVEDVRKFLDKEWAWVKELLAEHPAELAEVEAARAARLAELRAEVEAKVAA", "Unit tag": "nM", "apparent Kd (screen)": 0.539}
{"Binder": "M1I (designed binder) ITLQELLREEALRRAEAEAFRYALELLAEKFPEQKEYLLDLAEEIESQIRSLSGVDVEDVRKFLDKEWAWVKELLAEHPAELAEVEAARAARLAELRAEVEAKVAA", "Unit tag": "nM", "apparent Kd (screen)": 0.49}
{"Binder": "L24Y (designed binder) MTLQELLREEALRRAEAEAFRYAYELLAEKFPEQKEYLLDLAEEIESQIRSLSGVDVEDVRKFLDKEWAWVKELLAEHPAELAEVEAARAARLAELRAEVEAKVAA", "Unit tag": "nM", "apparent Kd (screen)": 0.539}
{"Binder": "D59L (designed binder) MTLQELLREEALRRAEAEAFRYALELLAEKFPEQKEYLLDLAEEIESQIRSLSGVDVELVRKFLDKEWAWVKELLAEHPAELAEVEAARAARLAELRAEVEAKVAA", "Unit tag": "nM", "apparent Kd (screen)": 0.718}
{"Binder": "A80G (designed binder) MTLQELLREEALRRAEAEAFRYALELLAEKFPEQKEYLLDLAEEIESQIRSLSGVDVEDVRKFLDKEWAWVKELLAEHPGELAEVEAARAARLAELRAEVEAKVAA", "Unit tag": "nM", "apparent Kd (screen)": 0.79}
{"Binder": "E43S (designed binder) MTLQELLREEALRRAEAEAFRYALELLAEKFPEQKEYLLDLASEIESQIRSLSGVDVEDVRKFLDKEWAWVKELLAEHPAELAEVEAARAARLAELRAEVEAKVAA", "Unit tag": "nM", "apparent Kd (screen)": 0.49}
{"Binder": "E29G (designed binder) MTLQELLREEALRRAEAEAFRYALELLAGKFPEQKEYLLDLAEEIESQIRSLSGVDVEDVRKFLDKEWAWVKELLAEHPAELAEVEAARAARLAELRAEVEAKVAA", "Unit tag": "nM", "apparent Kd (screen)": 0.49}
{"Binder": "A69C (designed binder) MTLQELLREEALRRAEAEAFRYALELLAEKFPEQKEYLLDLAEEIESQIRSLSGVDVEDVRKFLDKEWCWVKELLAEHPAELAEVEAARAARLAELRAEVEAKVAA", "Unit tag": "nM", "apparent Kd (screen)": 0.405}
{"Binder": "A91S (designed binder) MTLQELLREEALRRAEAEAFRYALELLAEKFPEQKEYLLDLAEEIESQIRSLSGVDVEDVRKFLDKEWAWVKELLAEHPAELAEVEAARASRLAELRAEVEAKVAA", "Unit tag": "nM", "apparent Kd (screen)": 0.79}
{"Binder": "L24A (designed binder) MTLQELLREEALRRAEAEAFRYAAELLAEKFPEQKEYLLDLAEEIESQIRSLSGVDVEDVRKFLDKEWAWVKELLAEHPAELAEVEAARAARLAELRAEVEAKVAA", "Unit tag": "nM", "apparent Kd (screen)": 1.54}
{"Binder": "E86I (designed binder) MTLQELLREEALRRAEAEAFRYALELLAEKFPEQKEYLLDLAEEIESQIRSLSGVDVEDVRKFLDKEWAWVKELLAEHPAELAEVIAARAARLAELRAEVEAKVAA", "Unit tag": "nM", "apparent Kd (screen)": 0.718}
{"Binder": "K35R (designed binder) MTLQELLREEALRRAEAEAFRYALELLAEKFPEQREYLLDLAEEIESQIRSLSGVDVEDVRKFLDKEWAWVKELLAEHPAELAEVEAARAARLAELRAEVEAKVAA", "Unit tag": "nM", "apparent Kd (screen)": 0.49}
{"Binder": "R13K (designed binder) MTLQELLREEALKRAEAEAFRYALELLAEKFPEQKEYLLDLAEEIESQIRSLSGVDVEDVRKFLDKEWAWVKELLAEHPAELAEVEAARAARLAELRAEVEAKVAA", "Unit tag": "nM", "apparent Kd (screen)": 0.869}
{"Binder": "E101A (designed binder) MTLQELLREEALRRAEAEAFRYALELLAEKFPEQKEYLLDLAEEIESQIRSLSGVDVEDVRKFLDKEWAWVKELLAEHPAELAEVEAARAARLAELRAEVAAKVAA", "Unit tag": "nM", "apparent Kd (screen)": 0.79}
{"Binder": "R89S (designed binder) MTLQELLREEALRRAEAEAFRYALELLAEKFPEQKEYLLDLAEEIESQIRSLSGVDVEDVRKFLDKEWAWVKELLAEHPAELAEVEAASAARLAELRAEVEAKVAA", "Unit tag": "nM", "apparent Kd (screen)": 0.79}
{"Binder": "L82Q (designed binder) MTLQELLREEALRRAEAEAFRYALELLAEKFPEQKEYLLDLAEEIESQIRSLSGVDVEDVRKFLDKEWAWVKELLAEHPAEQAEVEAARAARLAELRAEVEAKVAA", "Unit tag": "nM", "apparent Kd (screen)": 0.956}
